- studyTarget: FGFR3 (UniProt P22607)
- Sequence (P22607 whole entry, looked up): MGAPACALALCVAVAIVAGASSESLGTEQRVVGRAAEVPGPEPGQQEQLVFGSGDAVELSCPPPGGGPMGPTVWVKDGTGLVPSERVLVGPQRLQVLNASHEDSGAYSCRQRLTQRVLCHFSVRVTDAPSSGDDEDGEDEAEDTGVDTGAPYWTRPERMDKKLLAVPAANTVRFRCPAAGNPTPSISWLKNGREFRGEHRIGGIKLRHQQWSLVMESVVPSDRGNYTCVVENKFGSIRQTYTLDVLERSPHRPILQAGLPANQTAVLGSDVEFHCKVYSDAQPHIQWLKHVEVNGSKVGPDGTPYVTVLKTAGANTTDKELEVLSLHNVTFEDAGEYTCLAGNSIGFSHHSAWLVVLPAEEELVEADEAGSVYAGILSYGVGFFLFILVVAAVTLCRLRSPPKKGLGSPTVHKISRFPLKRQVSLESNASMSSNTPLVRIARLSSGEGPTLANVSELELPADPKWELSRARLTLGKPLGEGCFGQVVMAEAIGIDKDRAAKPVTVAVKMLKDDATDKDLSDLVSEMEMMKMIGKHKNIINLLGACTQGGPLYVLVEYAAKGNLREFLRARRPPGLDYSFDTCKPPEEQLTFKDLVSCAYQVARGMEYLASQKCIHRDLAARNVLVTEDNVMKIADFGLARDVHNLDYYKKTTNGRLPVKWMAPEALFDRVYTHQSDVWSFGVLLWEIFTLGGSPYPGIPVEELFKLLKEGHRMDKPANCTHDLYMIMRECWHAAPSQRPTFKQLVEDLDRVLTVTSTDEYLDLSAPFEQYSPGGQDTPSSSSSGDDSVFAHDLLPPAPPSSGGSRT
- protocolNotes: phosphorylation enrichment, bacterial display (enrichment ratio); higher = better substrate or ligand; peptides without Tyr show the background
Using phosphorylation enrichment as the sorting value, the categories are bucket A = under 0.5, bucket B = from 0.5 up to 0.7, bucket C = 0.7 and over

sequenceText	labelClass
IIWDSYTTNKV [GNB1_Y85]	bucket C
RNAAEYPLSSG [ABL1_Y139_L140P]	bucket A
LMLVLYGRIFR [HTR1A_Y215]	bucket C
GFGGGYGGVLT [KRT19_Y65_A60G_YF]	bucket B

Bin this entry: MENFIYESMQF [CYP19A1_Y361_R365Q_YF]
bucket C

Into which bin does this sequence go? CTTIHYNFMCD [TP53_Y234_N239D_YF]
bucket B

Input SSWKLYPRMLR [HAO1_Y50_R46S] ; output its category
bucket A

Hi, small favor: classify KHGGNYVPAPE [OSCP1_Y237_K242E] by its phosphorylation enrichment when you get a moment.
bucket A

Note: place this sequence into its band. Item: VGSEDYGWDLT [SPTAN1_Y1792_R1794W]
bucket C

Which bin, given its phosphorylation enrichment, does TVSSDYLHPQY [CCPG1_Y569_F566S] occupy?
bucket B

###

- studyTarget: Grb2 SH2 (UniProt P62993)
- Sequence (P62993 whole entry, looked up): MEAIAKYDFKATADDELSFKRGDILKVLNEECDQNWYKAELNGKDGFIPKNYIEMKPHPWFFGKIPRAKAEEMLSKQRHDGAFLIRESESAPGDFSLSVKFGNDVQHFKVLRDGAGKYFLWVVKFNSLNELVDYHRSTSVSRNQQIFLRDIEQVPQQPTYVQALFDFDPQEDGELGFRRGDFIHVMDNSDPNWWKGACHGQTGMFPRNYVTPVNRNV
- protocolNotes: SH2 binding enrichment of the phosphorylated peptide, bacterial display (enrichment ratio); higher = better substrate or ligand; peptides without Tyr show the background
quantityMeasured: SH2 binding enrichment
// print number alone

Below are worked cases with known answers.
sequenceText	studyTarget	observedResult
ASTDFNKRGDF [PDHA1_Y243_Y243N_YF]	Grb2 SH2 (UniProt P62993)	0.705
ASENVYVNIAH [CTSC_Y150]	Grb2 SH2 (UniProt P62993)	6.93
SNNYIYTTLGV [FAM83B_Y639_K640T]	Grb2 SH2 (UniProt P62993)	0.883

Return the recorded SH2 binding enrichment value; entry: VLNHAYENLTR [SYNE2_Y3255_D3253H]
26.7

Read the entry WTAHSYRMGST [ARHGEF7_Y785] and write its reported SH2 binding enrichment.
0.838

Quote SH2 binding enrichment reported for AATTAYSKPKR [MAP3K7_Y405] please.
0.935

State its SH2 binding enrichment for this sequence: PICEGYALPHA [ACTC1_Y171_Y168C]
0.951

Return reported SH2 binding enrichment. Input sequence: RLSVDYGKKSK [TUBA3E_Y161_S162G]
1.04

###

Each entry below carries its recorded phosphorylation enrichment.
- studyTarget: Jak2 (UniProt O60674)
- Sequence (O60674 whole entry, looked up): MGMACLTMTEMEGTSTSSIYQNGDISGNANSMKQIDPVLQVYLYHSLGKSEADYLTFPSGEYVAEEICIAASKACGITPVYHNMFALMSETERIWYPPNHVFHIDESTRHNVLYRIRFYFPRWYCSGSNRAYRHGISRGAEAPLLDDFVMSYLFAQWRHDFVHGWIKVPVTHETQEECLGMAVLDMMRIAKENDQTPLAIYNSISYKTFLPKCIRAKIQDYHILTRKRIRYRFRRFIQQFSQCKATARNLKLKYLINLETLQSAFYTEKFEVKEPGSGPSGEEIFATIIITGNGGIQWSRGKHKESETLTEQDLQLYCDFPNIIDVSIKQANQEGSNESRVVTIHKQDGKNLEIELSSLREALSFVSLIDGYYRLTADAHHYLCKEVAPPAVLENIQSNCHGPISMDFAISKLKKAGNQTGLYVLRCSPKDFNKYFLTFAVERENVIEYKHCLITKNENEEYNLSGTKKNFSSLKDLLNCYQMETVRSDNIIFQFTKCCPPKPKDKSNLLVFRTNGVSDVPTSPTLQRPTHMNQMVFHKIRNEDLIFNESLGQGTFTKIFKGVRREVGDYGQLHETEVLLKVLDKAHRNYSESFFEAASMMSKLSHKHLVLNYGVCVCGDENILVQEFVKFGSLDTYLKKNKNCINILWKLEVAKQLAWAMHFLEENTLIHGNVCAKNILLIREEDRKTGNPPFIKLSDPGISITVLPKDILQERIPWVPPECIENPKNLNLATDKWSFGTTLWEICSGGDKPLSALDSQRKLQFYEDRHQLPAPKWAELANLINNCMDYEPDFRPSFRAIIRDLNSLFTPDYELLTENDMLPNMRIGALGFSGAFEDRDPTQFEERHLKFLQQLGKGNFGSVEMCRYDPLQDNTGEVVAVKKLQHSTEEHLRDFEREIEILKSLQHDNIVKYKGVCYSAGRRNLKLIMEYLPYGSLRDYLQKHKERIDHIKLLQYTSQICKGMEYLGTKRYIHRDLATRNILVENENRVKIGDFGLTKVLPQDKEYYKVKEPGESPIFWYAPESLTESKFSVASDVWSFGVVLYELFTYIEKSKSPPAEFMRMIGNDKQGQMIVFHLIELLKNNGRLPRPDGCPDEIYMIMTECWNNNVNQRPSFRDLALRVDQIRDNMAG
- protocolNotes: phosphorylation enrichment, bacterial display (enrichment ratio); higher = better substrate or ligand; peptides without Tyr show the background
Give the figure only, with no unit attached.

sequenceText	studyTarget	quantityMeasured	observedResult
IEDNEYTAREG [HCK_Y411]	Jak2 (UniProt O60674)	phosphorylation enrichment	1.33
KLQKFYRKNPD [EHHADH_Y683_Q685K_YF]	Jak2 (UniProt O60674)	phosphorylation enrichment	0.469
GYQPDYGQPAG [SYP_Y278]	Jak2 (UniProt O60674)	phosphorylation enrichment	0.564

Dear colleague, please send me the reported phosphorylation enrichment for LSDGPYSNPFE [EPOR_Y485_YF] when you can.
0.862

Give recorded phosphorylation enrichment. TKQLTYEEQFL [PIK3C3_Y310_D314Y_YF]
0.861
